All values here come from PubChem BioAssay AID588675.

target: Mas-related G-protein coupled receptor member X1 (Homo sapiens); assay: positive allosteric modulators of MrgX1, primary screen, HEK293 cells, Fluo-4 calcium flux (AID 588675); settings: MrgX1-HEK293, Fluo-4 calcium flux, FDSS, at 10 µM; active compounds read high;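 also: compound read alongside a low EC10 to EC30 dose of BAM8-22 agonist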;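 as to B-score: peak minus trough fluorescence over baseline measured at the second addition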
The whole screen tested about 310,000 compounds, of which about 1,900 (0.61%) were called active. The sample as a whole holds a higher share of actives than the screen did.
recordedMetric: B-score

Example molecules with recorded B-score:
{"columns": ["molecule", "recordedMetric", "valueMeasured"],
 "data": [
  ["S=C(NCC1CCCO1)N1CCN(c2ccc(Cl)c(Cl)c2)CC1 (stereo not given)", "B-score", "inactive"],
  ["CC(=O)Nc1cccc(C(=O)OCN2C(=O)c3ccccc3C2=O)c1", "B-score", "inactive"],
  ["COc1cc(OC)c(-n2c(C)cc(C=O)c2C)cc1Cl", "B-score", "9.68 (active)"],
  ["CC1(C(=O)N/N=C/c2cc3c(cc2Br)OCO3)CC1(Br)Br (stereo not given)", "B-score", "8.54 (active)"],
  ["Cc1cccc(N2CCN(C(=O)COCc3cc(-c4ccc5c(c4)OCO5)on3)CC2)c1C", "B-score", "inactive"]
]}

Give its B-score value. Item: `CCn1c(C)nc2c1C(=O)c1ccccc1C2=O`
6.92 (active)

Please give the result for `Cc1c(CCC(=O)O)c(=O)oc2cc3occ(-c4ccccc4)c3cc12` too.
7.5 (active)

// repeat for S=C(NCCc1ccccc1)NCC1CCCO1 (stereo not given) and report
inactive

Do the same for `Cc1cc(N2C(=O)c3ccc(C(=O)NCc4ccccc4)cc3C2=O)no1` please
inactive

Then what about the molecule `Cc1ccc(S(=O)(=O)n2nc(OC(=O)C(C)(C)C)cc2N)cc1` ?
inactive

How about this molecule: `O=C(COCc1cc(-c2ccc3c(c2)OCO3)on1)N1CCN(c2cccc(Cl)c2)CC1`
inactive

And then O=C(NCCCc1ccccc1)C1CCC(CNc2c(N3CCCCC3)c(=O)c2=O)CC1 (stereo not given) , what is it?
inactive

Lookup `Nc1cc(OC(=O)c2ccccc2Br)nn1S(=O)(=O)c1ccccc1`
7.83 (active)

Another molecule to check: `Cn1c(-c2sc3cc(C(F)(F)F)cnc3c2-c2ccccc2)n[nH]c1=S`
9.48 (active)

Likewise for Cc1nc2ccccc2n1CC(O)c1ccccc1 (stereo not given) ?
inactive

Also need `O=C(C[n+]1cc(Br)cc2ccccc21)c1ccc(F)cc1` , thanks.
9.24 (active)

Consider next the molecule `COc1cccc2c(C)c(C(=O)O)[nH]c12` in the same way.
inactive

Field entry: CC1CCCC(C)N1/N=C/c1ccccc1OC(F)F (stereo not given)
inactive

What do you get for O=C(N/N=C/C=C/c1ccccc1)C1CC1(c1ccccc1)c1ccccc1 (stereo not given) ?
14.2 (active)

Queued: `Cc1ccc(C)c(-c2nnc(NC(=O)CS(=O)(=O)c3ccccc3)o2)c1`
inactive
